Reference source: the supplement of paper PMC3334620

Target: Cad1 (UniProt P24813)
Sequence: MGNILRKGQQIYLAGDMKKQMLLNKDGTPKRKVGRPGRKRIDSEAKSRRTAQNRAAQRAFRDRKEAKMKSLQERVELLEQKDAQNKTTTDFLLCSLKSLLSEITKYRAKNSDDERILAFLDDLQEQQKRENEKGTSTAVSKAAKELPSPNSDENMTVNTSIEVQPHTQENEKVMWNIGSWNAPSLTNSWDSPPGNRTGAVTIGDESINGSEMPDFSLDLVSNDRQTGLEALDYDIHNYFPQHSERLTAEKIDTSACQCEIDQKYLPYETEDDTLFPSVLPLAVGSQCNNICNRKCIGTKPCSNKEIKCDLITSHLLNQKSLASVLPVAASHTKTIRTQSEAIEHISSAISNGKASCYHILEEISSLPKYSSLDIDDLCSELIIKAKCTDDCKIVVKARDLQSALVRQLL
Test: PBM E-score (8-mer binding enrichment) (E-score (-0.5 to 0.5)); higher = stronger / more preferred TF binding
Conditions: protein concentration: 100 nM; construct: GST-full length
The full ranking holds about 33,000 sequences; the median of “E-score (-0.5 to 0.5)” is about -0.0014, and the highest 2% start at about 0.25. The sample as a whole holds a higher share of the highest values than the screen did.
Quick rule: PBM E-score of at least 0.04 means true, below that means false.

In: Has `AAGCGCGA` a recorded PBM E-score greater than or equal to 0.04?
Out: true

In: Has `GCTTATCA` a recorded PBM E-score greater than or equal to 0.04?
Out: true

In: Has `AGAGTTGG` a recorded PBM E-score greater than or equal to 0.04?
Out: false

In: Has `CTGAGTAA` a recorded PBM E-score greater than or equal to 0.04?
Out: true

###

Target: Cad1 (UniProt P24813)
Sequence: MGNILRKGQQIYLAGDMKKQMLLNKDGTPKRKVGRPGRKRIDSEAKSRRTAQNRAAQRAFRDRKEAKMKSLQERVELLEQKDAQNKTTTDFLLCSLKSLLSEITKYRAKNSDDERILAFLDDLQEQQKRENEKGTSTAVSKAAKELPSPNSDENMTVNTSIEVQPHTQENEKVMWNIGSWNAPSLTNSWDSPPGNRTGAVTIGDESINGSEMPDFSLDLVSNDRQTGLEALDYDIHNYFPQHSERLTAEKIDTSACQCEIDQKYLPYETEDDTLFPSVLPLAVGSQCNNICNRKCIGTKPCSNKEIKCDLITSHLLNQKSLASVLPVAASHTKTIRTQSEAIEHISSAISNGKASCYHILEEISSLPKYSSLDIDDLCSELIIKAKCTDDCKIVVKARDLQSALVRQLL
Experiment: PBM E-score (8-mer binding enrichment) (E-score (-0.5 to 0.5)); higher = stronger / more preferred TF binding
Conditions: protein concentration: 100 nM; construct: GST-full length
Whole data set: some 33,000 sequences, median “E-score (-0.5 to 0.5)” near -0.0014, cut for the highest 2% near 0.25. The sample holds the highest values, similar sequences and a random draw of the others, so the mix is not that of the screen.
Note to self: class = bucket of PBM E-score, per lower = under -0.02, middle = from -0.02 up to 0.1, upper = 0.1 and over

In: Category lookup for the sequence `CAACATAC`
Out: upper

In: Category lookup for the sequence `GGTGGGTA`
Out: lower

In: Category lookup for the sequence `CAACTTAA`
Out: middle

In: Category lookup for the sequence `TAACGAAA`
Out: upper

In: Category lookup for the sequence `AAACGAAC`
Out: middle

In: Category lookup for the sequence `AACTTGGG`
Out: lower

In: Category lookup for the sequence `CCGGAAAA`
Out: upper

In: Category lookup for the sequence `TAACATAA`
Out: upper

In: Category lookup for the sequence `AAACGAAT`
Out: middle

In: Category lookup for the sequence `AAACATAA`
Out: lower

In: Category lookup for the sequence `CTTAACTC`
Out: middle

In: Category lookup for the sequence `AGCGGGCC`
Out: lower

In: Category lookup for the sequence `GTAAGGAC`
Out: lower

In: Category lookup for the sequence `GGGACGAA`
Out: lower

In: Category lookup for the sequence `GAACGAAA`
Out: middle

In: Category lookup for the sequence `AATCTAGG`
Out: middle

In: Category lookup for the sequence `GCTTAGCC`
Out: lower

In: Category lookup for the sequence `GCCCTCCC`
Out: lower

In: Category lookup for the sequence `AAACGAAA`
Out: upper

In: Category lookup for the sequence `AAACTCAG`
Out: middle

In: Category lookup for the sequence `AAACTAAA`
Out: upper

In: Category lookup for the sequence `ATCCAGGG`
Out: lower

In: Category lookup for the sequence `TAAACTAA`
Out: upper

In: Category lookup for the sequence `AACCCCTC`
Out: lower

In: Category lookup for the sequence `AATACTAA`
Out: upper

In: Category lookup for the sequence `GAACTTAA`
Out: upper

In: Category lookup for the sequence `AAAGTTCT`
Out: middle

In: Category lookup for the sequence `ACTACCGG`
Out: lower

In: Category lookup for the sequence `CAACATAA`
Out: upper

In: Category lookup for the sequence `TTAACTAA`
Out: upper

In: Category lookup for the sequence `CTAACTAA`
Out: upper

In: Category lookup for the sequence `GAACATAA`
Out: upper

In: Category lookup for the sequence `CGGACGAC`
Out: lower

In: Category lookup for the sequence `CAAACTAA`
Out: upper

In: Category lookup for the sequence `ATAACTAA`
Out: upper

In: Category lookup for the sequence `AAGCTGAT`
Out: upper

In: Category lookup for the sequence `CAAACTAC`
Out: middle

In: Category lookup for the sequence `CCTTAGCC`
Out: middle

In: Category lookup for the sequence `ACTACTGC`
Out: lower

In: Category lookup for the sequence `CAACATAG`
Out: lower

In: Category lookup for the sequence `AAACTTAA`
Out: upper
